Read-out: Interferon-inducible T-cell alpha chemoattractant (ITAC), CXCL11 (gene 6373)
TEST: BSK_hDFCGF_ITAC: BioMAP Diversity Plus: hDFCGF Assay for Interferon-inducible T-cell alpha chemoattractant (ITAC) Biomarker Activity (AID 2284251)
APPLIED_CONDITIONS: primary human foreskin fibroblasts
The source made the active and inactive calls. The calls were made as follows: active = hit-call score of the fitted dose curve at least 0.9, where 1 is the maximum; inactive = score below 0.9.
RESULT_TYPE: outcome

Record excerpt, results attached:
>  <COMPOUND>
COc1ccccc1Oc1c(NS(=O)(=O)c2ccc(C(C)(C)C)cc2)nc(-c2ncccn2)nc1OCCO

>  <outcome>
inactive

$$$$
>  <COMPOUND>
C1CN(CCOCCN2CCOCC2)CCO1

>  <outcome>
inactive

$$$$
>  <COMPOUND>
CC(C)C1OCCN1CCOC(=O)NCCCCCCNC(=O)OCCN1CCOC1C(C)C (stereo not given)

>  <outcome>
inactive

$$$$
>  <COMPOUND>
CC[N+](CC)(CC(=O)Nc1c(C)cccc1C)Cc1ccccc1 (tested in a mixture with another compound)

>  <outcome>
inactive

$$$$

Next:
Challenge: Given CCC[Si](OC(C)=O)(OC(C)=O)OC(C)=O , respond with its outcome.
Response given: inactive

---

TEST: TOX21_p53_BLA_p5_viability: Viability Assessment in the Tox21 HCT-116 p53 Agonism Beta-lactamase Assay, Phase 5 (AID 2283600)
Inconclusive results are not listed. Active and inactive are the calls of the source. How the source made its calls: active means hit-call score of the fitted dose curve at least 0.9, where 1 is the maximum; inconclusive means response in the unintended direction; inactive means score below 0.9.
Bench note: report the call from active, inactive

Some solved entries appear below for comparison.
>  <COMPOUND>
CC(=O)OCC(=O)[C@@]1(O)CCC2C3CCC4=CC(=O)CC[C@]4(C)C3C(O)C[C@@]21C (stereo not given in full)

>  <CATEGORY_LABEL>
inactive

$$$$
>  <COMPOUND>
C(=C\c1ccccc1)/CN1CCN(C(c2ccccc2)c2ccccc2)CC1

>  <CATEGORY_LABEL>
inactive

$$$$
>  <COMPOUND>
COc1cc(OC)c(C(=O)CCCN2CCCC2)c(OC)c1

>  <CATEGORY_LABEL>
inactive

$$$$

Challenge: Recorded test outcome, item C1C[C@@H]2[C@H]3CC[C@H](C3)[C@@H]2C1
Response given: inactive

Challenge: What outcome does the record of this test show for O=C1CCc2ccc(OCCCCN3CCN(c4cccc(Cl)c4Cl)CC3)cc2N1 ?
Response given: active

---

STUDY_SYSTEM: Cellular tumor antigen p53 (Homo sapiens) (UniProt P04637)
Sequence (P04637 whole entry, looked up): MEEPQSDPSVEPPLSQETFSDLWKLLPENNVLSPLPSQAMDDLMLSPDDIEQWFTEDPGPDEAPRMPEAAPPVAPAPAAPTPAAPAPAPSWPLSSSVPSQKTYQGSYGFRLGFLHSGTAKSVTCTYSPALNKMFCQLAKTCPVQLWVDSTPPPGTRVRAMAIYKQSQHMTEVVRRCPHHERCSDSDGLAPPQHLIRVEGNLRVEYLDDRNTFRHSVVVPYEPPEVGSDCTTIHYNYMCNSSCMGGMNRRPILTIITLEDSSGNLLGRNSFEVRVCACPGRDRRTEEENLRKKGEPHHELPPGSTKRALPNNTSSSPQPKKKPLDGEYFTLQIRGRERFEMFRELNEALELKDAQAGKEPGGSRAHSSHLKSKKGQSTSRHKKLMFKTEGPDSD
TEST: TOX21_p53_BLA_p2_ratio: Tox21 HCT-116 p53 Agonism Beta-lactamase Assay, Ratio, Phase 2 (AID 2283592)
Results filed as inconclusive are left out. Active and inactive are the calls of the source. Rule for the calls: active = hit-call score of the fitted dose curve at least 0.9, where 1 is the maximum; inconclusive = response in the unintended direction; inactive = score below 0.9.
Pick from YES = active, NO = inactive when you respond.

>  <COMPOUND>
CCCC1C(CC)=CC(CC)=CN1c1ccccc1 (stereo unspecified)

>  <CATEGORY_LABEL>
NO

$$$$
>  <COMPOUND>
Nc1cccc(S(=O)(=O)O)c1

>  <CATEGORY_LABEL>
NO

$$$$
>  <COMPOUND>
CCc1ccc2c(c1)N(CC(C)CN(C)C)c1ccccc1S2 (stereo unspecified)

>  <CATEGORY_LABEL>
NO

$$$$
>  <COMPOUND>
CC(C)=C1CC[C@@H](C)CC1=O

>  <CATEGORY_LABEL>
NO

$$$$
>  <COMPOUND>
OCC1O[C@@H](O[C@@H]2C(CO)OC(O)C(O)C2O)C(O)C(O)C1O (stereo partly specified)

>  <CATEGORY_LABEL>
NO

$$$$

Challenge: Please state the recorded outcome for this compound: COc1cc2[nH]c(C)c(CCN3CCN(c4ccccc4)CC3)c2cc1OC
Response given: NO

Challenge: Kindly provide the recorded test outcome for the following compound: Cc1nc(NS(=O)(=O)c2ccc(N)cc2)nc(C)c1Br
Response given: NO

Challenge: Tell me the recorded outcome of this test for CN(C)CC/C=C1\c2ccccc2Sc2ccc(Cl)cc21 .
Response given: YES

Challenge: I'd appreciate the recorded outcome for C=C[C@]1(C)C[C@@H](OC(=O)CO)[C@]2(C)[C@H](C)CC[C@]3(CCC(=O)[C@H]32)[C@@H](C)[C@@H]1O from this test.
Response given: NO

Challenge: Which result was noted for this compound in the test: CC(=O)N[C@@H]([C@@H](O)[C@H](O)[C@H](O)CO)[C@@H](O)CC(=O)C(=O)O
Response given: NO

Challenge: For this compound, state the assay outcome: C=CC(=O)Nc1cc2c(Nc3ccc(F)c(Cl)c3)ncnc2cc1OCCCN1CCOCC1
Response given: NO

---

STUDY_SYSTEM: Cellular tumor antigen p53 (Homo sapiens) (UniProt P04637)
TEST: TOX21_p53_BLA_p3_ratio: Tox21 HCT-116 p53 Agonism Beta-lactamase Assay, Ratio, Phase 3 (AID 2283596)
Inconclusive results are not listed. Calls of active or inactive are those of the source. The calls were made as follows: active = hit-call score of the fitted dose curve at least 0.9, where 1 is the maximum; inconclusive = response in the unintended direction; inactive = score below 0.9.
Allowed answers: active, inactive

>  <COMPOUND>
CC(CCC(=O)O)C(=O)O (stereo not given)

>  <STUDY_SYSTEM>
Cellular tumor antigen p53 (Homo sapiens) (UniProt P04637)

>  <CATEGORY_LABEL>
inactive

$$$$

Challenge: Which outcome was assigned to C=CCn1c(=O)n(CC=C)c(=O)n(CC=C)c1=O in this test?
Response given: inactive

Challenge: Status in this test for O=[N+]([O-])c1cc(C2CCCCC2)c(O)c([N+](=O)[O-])c1 ?
Response given: active

Challenge: I would be grateful if you could indicate the recorded call for O=C(OCC(COC(=O)c1ccccc1)(COC(=O)c1ccccc1)COC(=O)c1ccccc1)c1ccccc1 .
Response given: active

---

STUDY_SYSTEM: Cellular tumor antigen p53 (Homo sapiens) (UniProt P04637)
TEST: TOX21_p53_BLA_p4_ratio: Tox21 HCT-116 p53 Agonism Beta-lactamase Assay, Ratio, Phase 4 (AID 2283601)
Records with an inconclusive call do not appear. Active and inactive are the calls of the source. Rule for the calls: active = hit-call score of the fitted dose curve at least 0.9, where 1 is the maximum; inconclusive = response in the unintended direction; inactive = score below 0.9.
Write down the outcome that applies. Available outcomes: active, inactive

>  <COMPOUND>
C[C@@H]1CCC[C@H](C)N1

>  <CATEGORY_LABEL>
inactive

$$$$
>  <COMPOUND>
CCCCCCC1CCCC(=O)O1 (stereo unspecified)

>  <CATEGORY_LABEL>
inactive

$$$$
>  <COMPOUND>
COc1cc2c(cc1OC)-c1cc(=Nc3c(C)cc(C)cc3C)n(C)c(=O)n1CC2

>  <CATEGORY_LABEL>
active

$$$$
>  <COMPOUND>
C=C(C)c1ccccc1

>  <CATEGORY_LABEL>
inactive

$$$$
>  <COMPOUND>
N=C(N)c1ccc(OCCCOc2ccc(C(=N)N)cc2)cc1

>  <CATEGORY_LABEL>
inactive

$$$$

From here, focus on the item given below.
Challenge: Please indicate how the test categorized CN[C@@H]1[C@@H](O[C@H]2O[C@H](CO)[C@@H](N)[C@H](O)[C@H]2O)O[C@H]2C[C@@H](N)[C@@H](O[C@H]3[C@H](O)[C@@H](O)[C@H](N)C[C@@H]3N)O[C@@H]2[C@@H]1O .
Response given: inactive

---

STUDY_SYSTEM: Retinoic acid receptor RXR-alpha (Homo sapiens) (UniProt P19793)
Sequence (P19793 whole entry, looked up): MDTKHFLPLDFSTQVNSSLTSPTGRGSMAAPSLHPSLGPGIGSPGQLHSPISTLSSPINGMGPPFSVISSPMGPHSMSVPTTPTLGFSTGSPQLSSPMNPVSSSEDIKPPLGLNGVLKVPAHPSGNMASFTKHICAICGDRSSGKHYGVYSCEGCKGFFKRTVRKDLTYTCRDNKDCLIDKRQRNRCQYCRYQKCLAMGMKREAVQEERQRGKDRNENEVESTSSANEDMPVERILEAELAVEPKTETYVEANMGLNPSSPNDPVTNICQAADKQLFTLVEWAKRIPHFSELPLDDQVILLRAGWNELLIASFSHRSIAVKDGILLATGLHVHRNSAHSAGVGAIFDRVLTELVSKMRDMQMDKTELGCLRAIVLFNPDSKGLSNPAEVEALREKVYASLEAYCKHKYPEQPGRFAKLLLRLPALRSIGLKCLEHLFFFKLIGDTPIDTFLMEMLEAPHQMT
TEST: TOX21_TR_RXR_BLA_Antagonist_Followup_ratio: Tox21 Thyroid Hormone Receptor beta Retinoid X Receptor alpha (RXRa) Antagonism Beta-lactamase (BLA) Follow-Up Assay, Ratio (AID 2283972)
Inconclusive results are not listed. Active and inactive are the calls of the source. Rule for the calls: active = hit-call score of the fitted dose curve at least 0.9, where 1 is the maximum; inconclusive = response in the unintended direction; inactive = score below 0.9.
Just give me one of these, please: 1.0 (active), 0.0 (inactive)

Below are worked cases with known answers.
>  <MOLECULE>
COc1ccc2nc(NC(=O)Nc3ccccc3)sc2c1

>  <CATEGORY_LABEL>
0.0

$$$$
>  <MOLECULE>
O=C(CCCCCCC(=O)Nc1ccccc1)NO

>  <CATEGORY_LABEL>
0.0

$$$$
>  <MOLECULE>
CC(C)=CCC1=C(O)c2ccccc2C(=O)C1=O

>  <CATEGORY_LABEL>
0.0

$$$$

For the next question, use this molecule.
Challenge: // param item: CCC[C@@]1(CCc2ccccc2)CC(O)=C([C@H](CC)c2cccc(NS(=O)(=O)c3ccc(C(F)(F)F)cn3)c2)C(=O)O1 ; yields the recorded call
Response given: 0.0

---

STUDY_SYSTEM: Cellular tumor antigen p53 (Homo sapiens) (UniProt P04637)
TEST: TOX21_p53_BLA_p3_ratio: Tox21 HCT-116 p53 Agonism Beta-lactamase Assay, Ratio, Phase 3 (AID 2283596)
Method: TOX21_p53_BLA_p3 is a cell-based, single-readout assay that uses HCT116, a human intestinal cell line, […] in a 1536-well plate.TOX21_p53_BLA_p3_ratio is an assay readout measuring reporter gene via receptor activity and designed using inducible reporter (beta lactamase induction) detected with GAL4 b-lactamase reporter gene. […] This assay endpoint, TOX21_p53_BLA_p3_ratio, was analyzed in the positive analysis fitting direction relative to DMSO as the negative control and baseline of activity. […]
Results filed as inconclusive are left out. Calls of active or inactive are those of the source. How the source made its calls: active means hit-call score of the fitted dose curve at least 0.9, where 1 is the maximum; inconclusive means response in the unintended direction; inactive means score below 0.9.
Entry note: the call must match one of 1 (yes) (active), 0 (no) (inactive)

>  <COMPOUND>
O=C(NCCN1CCOCC1)c1ccc(Cl)cc1

>  <CATEGORY_LABEL>
0 (no)

$$$$
>  <COMPOUND>
Brc1ccccc1-c1ccccc1

>  <CATEGORY_LABEL>
0 (no)

$$$$
>  <COMPOUND>
CNCCc1ccccn1

>  <CATEGORY_LABEL>
0 (no)

$$$$
>  <COMPOUND>
C[C@@H]1C[C@H]2[C@@H]3CCC4=CC(=O)C=C[C@]4(C)[C@@]3(F)[C@@H](O)C[C@]2(C)[C@H]1C(=O)CO

>  <CATEGORY_LABEL>
0 (no)

$$$$
>  <COMPOUND>
CC1=C(C=O)C(C)(C)CC=C1

>  <CATEGORY_LABEL>
0 (no)

$$$$

Challenge: Name the outcome recorded for COC(=O)[C@H]1[C@H]2C[C@@H]3c4[nH]c5cc(OC)ccc5c4CCN3C[C@H]2C[C@@H](OC(=O)COc2ccc(OC)cc2)[C@@H]1OC in the assay.
Response given: 0 (no)

Challenge: Answer briefly: the call reported for Nc1ccc(N=Nc2ccccc2)c(N)c1 in this assay.
Response given: 0 (no)

Challenge: Called result for O=C(c1ccc(O)cc1)c1ccc(O)c(O)c1O
Response given: 0 (no)

Challenge: Tell me the recorded outcome of this test for CCC(C)[C@H]1O[C@]2(C=C[C@@H]1C)C[C@@H]1C[C@@H](C/C=C(\C)[C@@H](O[C@H]3C[C@H](OC)[C@@H](O[C@H]4C[C@H](OC)[C@H](NC(C)=O)[C@H](C)O4)[C@H](C)O3)[C@@H](C)/C=C/C=C3\CO[C@@H]4[C@H](O)C(C)=C[C@@H](C(=O)O1)[C@]34O)O2 (stereo not given in full) .
Response given: 1 (yes)

Challenge: Answer briefly: the call reported for Clc1ccc2n[nH]nc2c1 in this assay.
Response given: 0 (no)
